assay: Antiinflammatory activity in fMLP/cytochalasin B stimulated rat neutrophils assessed as inhibition of beta-glucuronidase release preincubated for 10 mins measured 45 mins after fMLP/cytochalasin B challenge; assay type: functional, cell-based; settings: Neutrophil
value-kind: IC50

>>> df
                               given_smiles  recorded_measurement
0  CN1CCN(CCCN2c3ccccc3Sc3ccc(C(F)(F)F)cc32)CC1               12.2 µM
1  C=C(C)c1cc2c3c(ccc2o1)[C@@H]1COc2cc(O)ccc2[C@@H]1O3                7.8 µM

###

As shown below, each of these compounds has a reported IC50 value.
tested on: N9; experiment: Antiinflammatory activity in LPS/IFN-gamma-stimulated mouse N9 cells assessed as inhibition of nitric oxide production pretreated 1 hr before LPS/IFNgamma challenge
value-kind: IC50 (µM)

>>> print(df.to_string())
                                   compound  value_kind  recorded_measurement
0              CC(=N)NCc1cccc(CN)c1 [1400W]        IC50                   3.6
1  CC(=O)c1cc2c3c(ccc2o1)[C@@H]1COc2cc(O)ccc2[C@@H]1O3        IC50                   9.4
